Assignment: determine reported IC50 for the given compounds.
TESTED ON: KRAS_G12D and cRAF (Homo sapiens, UniProt P01116, G12D)
Sequence (P01116 1-188 isoform P01116-2 G12D): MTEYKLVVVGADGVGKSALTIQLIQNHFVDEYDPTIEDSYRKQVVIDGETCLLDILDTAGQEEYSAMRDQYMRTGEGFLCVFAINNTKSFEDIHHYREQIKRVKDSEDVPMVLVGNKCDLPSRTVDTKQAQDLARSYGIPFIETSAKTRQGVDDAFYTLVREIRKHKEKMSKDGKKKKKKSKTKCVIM
METHOD DESCRIPTION: Inhibition of KRAS_G12D/cRAF binding (Cisbio binding kit, 665/615 ratio), Effect Embodiment B
CONDITION SET: read-out: GTP-KRAS-G12D:CRAF IC50
Where a name gives a salt, the structure may show the parent alone.
A number alone suffices; assume nM.

Form field IC50, entry CN(C)C1CN(c2nc(N3[C@@H]4CC[C@H]3CNC4)c3cc(Cl)c(-c4cc(O)cc5ccccc45)c(F)c3n2)C1 (single isomer, unassigned) : 66

Form field IC50, entry Oc1cc(-c2c(Cl)cc3c(N4CC5CCC(C4)N5)nc(N4CCNCC4)nc3c2F)c2ccccc2c1 (single isomer, unassigned) [Compound 57b] : 7910

Form field IC50, entry CCc1c(F)ccc2cc(O)cc(-c3c(F)cc4c(N5CC6CCC(C5)N6)nc(OC[C@H](C)CN5C6CCC5COC6)nc4c3F)c12 (single isomer, unassigned) [Compound 229a] : 11.8

Form field IC50, entry C#Cc1cccc2cc(O)cc(-c3c(F)cc4c(N5CC6CCC(C5)N6)nc(OCCCN5C6CCC5COC6)nc4c3F)c12 (single isomer, unassigned) [Compound 273a] : 7.91

Form field IC50, entry Cc1cc2c(N3CC4CCC(C3)N4)nc(OCCCN(C)C)nc2c(F)c1-c1cc(O)cc2ccccc12 (single isomer, unassigned) [Compound 149a, hydrochloride] : 96.9
